Each recorded value in this set is attributed to the Immune Epitope Database (IEDB).

- assay-target: HLA-B*46:01
- protocol-details: IEDB peptide-MHC binding, purified MHC/competitive/fluorescence; filed as Kd, often an IC50 or EC50 that approximates it; bounds were set here for any values at or beyond the usual limits of such assays
- condition-description: source organism: Yersinia pestis Antiqua
pKd: −log10 of the molar value.
measured-property: pKd

Fill in: pKd of `PLTNQRYRV` is ___
≤ 4.70

----------
- assay-target: HLA-B*15:09
- protocol-details: IEDB peptide-MHC binding, purified MHC/competitive/fluorescence; filed as Kd, often an IC50 or EC50 that approximates it; bounds were set here for any values at or beyond the usual limits of such assays
- condition-description: source organism: Mycobacterium tuberculosis C
pKd: −log10 of the molar value.
measured-property: pKd

Fill in: pKd of `RPKPDYSAM` is ___
≤ 4.70

----------
- assay-target: HLA-A*01:01
- protocol-details: IEDB peptide-MHC binding, purified MHC/direct/fluorescence; filed as Kd, often an IC50 or EC50 that approximates it; bounds were set here for any values at or beyond the usual limits of such assays
- condition-description: source organism: West Nile virus
measured-property: Kd (µM)
Number only, in µM; omit the unit.

Query the reported Kd for HLA-A*01:01; item: `MTRGILGSY`
7

----------
- assay-target: HLA-A*26:01
- protocol-details: IEDB peptide-MHC binding, purified MHC/competitive/fluorescence; filed as Kd, often an IC50 or EC50 that approximates it; bounds were set here for any values at or beyond the usual limits of such assays
- condition-description: source organism: Mycobacterium tuberculosis variant bovis BCG str. Pasteur 1173P2
pKd: −log10 of the molar value.
measured-property: pKd

Fill in: pKd of `HLTRVGPYL` is ___
≤ 4.70

----------
- assay-target: HLA-B*08:01
- protocol-details: IEDB peptide-MHC binding, purified MHC/direct/fluorescence; filed as Kd, often an IC50 or EC50 that approximates it; bounds were set here for any values at or beyond the usual limits of such assays
- condition-description: source organism: Influenza A virus (A/Viet Nam/HN/2004(H5N1))
pKd: −log10 of the molar value.
measured-property: pKd

Fill in: pKd of `VHFRNQVKI` is ___
≤ 4.70

----------
- assay-target: HLA-A*11:01
- protocol-details: IEDB peptide-MHC binding, purified MHC/direct/fluorescence; filed as Kd, often an IC50 or EC50 that approximates it; bounds were set here for any values at or beyond the usual limits of such assays
- condition-description: source organism: Toxoplasma gondii
measured-property: Kd

Fill in: Kd of `AYMDRKSFK` is ___
≥ 5 µM

----------
- assay-target: HLA-B*57:01
- protocol-details: IEDB peptide-MHC binding, purified MHC/direct/fluorescence; filed as Kd, often an IC50 or EC50 that approximates it; bounds were set here for any values at or beyond the usual limits of such assays
- condition-description: source organism: Mycobacterium avium 104
measured-property: Kd

Query the reported Kd for HLA-B*57:01; item: `VRDVVMPAL`
≥ 20 µM

----------
- assay-target: HLA-B*39:01
- protocol-details: IEDB peptide-MHC binding, purified MHC/direct/fluorescence; filed as Kd, often an IC50 or EC50 that approximates it; bounds were set here for any values at or beyond the usual limits of such assays
- condition-description: source organism: Entamoeba histolytica HM-1:IMSS
pKd: −log10 of the molar value.
measured-property: pKd

Query the reported pKd for HLA-B*39:01; item: `IESNPLFPV`
≤ 4.70
